Listed next: entries and their corresponding Human Hepatocyte Remaining Percentage @ 120 min (%).
System: pooled human hepatocytes
Method Notes: Human hepatocyte clearance study
Type: in vitro ADME
Run Parameters: human hepatocytes 0.5x10^6 viable cells/mL, 120 min
State the answer as a number, implicitly in %.

>>> recorded_number("C[C@@H]1Cc2c([nH]c3ccccc23)[C@@H](c2c(F)cc(OCCN3CC(CF)C3)cc2F)N1CC(C)(F)F")
88

Sample C[C@@H]1Cc2c([nH]c3ccccc23)[C@@H](c2c(F)cc(/C=C/C(=O)O)cc2F)N1CC(C)(C)F [AZD9496, reference compound] ; Human Hepatocyte Remaining Percentage @ 120 min (%) observed: 58

Sample C[C@@H]1Cc2c([nH]c3ccccc23)[C@@H](c2c(F)cc(/C=C/C(=O)O)cc2F)N1CC(C)(F)F ; Human Hepatocyte Remaining Percentage @ 120 min (%) observed: 83
